The following compounds each carry a recorded pIC50 for 11-beta-hydroxysteroid dehydrogenase 1 (Homo sapiens).
pIC50: −log10 of the molar value.

compound: C[C@H](NC1=NC(=O)C(C)(C(F)(F)F)S1)c1ccccc1F (some centres undefined)
pIC50: 7.25

compound: CC(C)C1(C)SC(NCc2ccccc2)=NC1=O (centres undefined)
pIC50: 7.28

compound: C[C@H](NC1=NC(=O)[C@@](C)(C(F)(F)F)S1)c1ccccc1F
pIC50: 7.48

compound: C[C@H](NC1=NC(=O)[C@](C)(C(F)(F)F)S1)c1ccccc1F
pIC50: 7.02

====

# maps each entry to its Vd
assay: Volume of distribution in Sprague-Dawley rat at 2 mg/kg, iv; format: ADME, organism-based; set-up: dose 2 mg/kg, route intravenous; settings: in vivo, read-out: Vss

compound: CC(C)[C@]1(C)SC(N[C@@H](C)c2ccccc2F)=NC1=O
unit name: L/kg
Vd: 5.73

compound: C[C@H](NC1=NC(=O)C(C)(C(C)(C)F)S1)c1ccccc1F (stereo not given in full)
unit name: L/kg
Vd: 1.66

compound: C[C@H](NC1=NC(=O)C(C)(C(F)(F)F)S1)c1ccccc1F (stereo not given in full)
unit name: L/kg
Vd: 2.98

compound: C[C@H](NC1=NC(=O)[C@@](C)(C(F)(F)F)S1)c1ccccc1F
unit name: L/kg
Vd: 1.2

compound: C[C@H](NC1=NC(=O)[C@](C)(C(F)(F)F)S1)c1ccccc1F
unit name: L/kg
Vd: 1.66
